Target: various mutants of kinase EGFR (BaF3 cell lines stably transfected with kinase) (Homo sapiens, UniProt P00533, L858R/T790M)
Construct: expressed in transfected cells; host or cells: BaF3
Sequence (P00533 25-1210 T790M/L858R): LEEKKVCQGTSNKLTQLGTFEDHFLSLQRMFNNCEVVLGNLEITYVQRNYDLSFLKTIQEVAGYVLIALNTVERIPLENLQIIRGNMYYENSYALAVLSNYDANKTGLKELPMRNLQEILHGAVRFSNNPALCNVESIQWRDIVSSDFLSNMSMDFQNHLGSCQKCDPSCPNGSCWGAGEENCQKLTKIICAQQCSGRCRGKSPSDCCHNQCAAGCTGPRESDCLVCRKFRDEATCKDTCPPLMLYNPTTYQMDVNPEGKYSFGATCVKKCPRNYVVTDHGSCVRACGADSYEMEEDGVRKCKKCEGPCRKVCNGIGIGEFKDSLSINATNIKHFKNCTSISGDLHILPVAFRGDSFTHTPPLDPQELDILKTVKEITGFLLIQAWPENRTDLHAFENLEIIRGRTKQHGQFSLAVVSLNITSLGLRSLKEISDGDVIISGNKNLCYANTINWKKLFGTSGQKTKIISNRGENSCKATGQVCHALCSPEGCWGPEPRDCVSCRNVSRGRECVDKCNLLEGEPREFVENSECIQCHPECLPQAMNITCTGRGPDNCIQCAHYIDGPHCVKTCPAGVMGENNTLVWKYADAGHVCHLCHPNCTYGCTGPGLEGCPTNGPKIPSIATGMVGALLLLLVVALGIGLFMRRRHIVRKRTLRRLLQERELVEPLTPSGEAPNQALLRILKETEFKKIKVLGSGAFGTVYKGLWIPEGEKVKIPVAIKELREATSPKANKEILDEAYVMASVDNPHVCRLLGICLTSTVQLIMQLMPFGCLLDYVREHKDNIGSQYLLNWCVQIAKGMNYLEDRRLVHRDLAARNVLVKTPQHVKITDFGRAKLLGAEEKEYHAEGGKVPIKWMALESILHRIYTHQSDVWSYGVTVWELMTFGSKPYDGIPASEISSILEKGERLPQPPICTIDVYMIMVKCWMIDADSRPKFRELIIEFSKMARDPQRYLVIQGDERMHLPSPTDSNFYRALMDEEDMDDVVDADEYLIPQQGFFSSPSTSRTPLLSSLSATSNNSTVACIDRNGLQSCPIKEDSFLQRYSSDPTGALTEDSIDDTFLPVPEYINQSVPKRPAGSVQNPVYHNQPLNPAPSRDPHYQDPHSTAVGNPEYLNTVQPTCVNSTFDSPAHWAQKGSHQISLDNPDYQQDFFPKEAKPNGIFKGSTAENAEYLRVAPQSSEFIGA
Experiment: Growth inhibitory activity of compounds on BaF3 cell lines stably transfected with kinase (MTS, 48 h)
Format: cell-based
Settings: BaF3 cells stably transfected with EGFR L858R/T790M, read-out: IC50, growth inhibition, L858R/T790M

compound	IC50
CCc1cc(Nc2ncc(C(F)(F)F)c(Nc3ccc4nccnc4c3N(C)S(C)(=O)=O)n2)c(OC)nc1N1CCC(N2CCN(C)CC2)CC1 [Compound I-199]	≤ 0.05 µM
CCc1cc(Nc2ncc(Br)c(Nc3ccc4nccnc4c3N(C)S(=O)(=O)C3CC3)n2)c(OC(F)(F)F)cc1N1CCC(N2CCN(C)CC2)CC1 [Compound I-106]	0.05 to 0.5 µM
COc1cc(N2CCN(C)CC2)c(C)cc1Nc1ncc(Cl)c(Nc2ccc3nccnc3c2N(C)S(C)(=O)=O)n1 [Compound I-171]	≤ 0.05 µM
CCc1cc(Nc2ncc(Cl)c(Nc3ccc4nccnc4c3N(C3CC3)S(C)(=O)=O)n2)c(OC)cc1N1CCC(N(C)C)C1 (stereo not shown) [Compound I-163]	≤ 0.05 µM
CCc1cc(Nc2ncc(C#N)c(Nc3ccc4nccnc4c3N(C)S(C)(=O)=O)n2)c(OC)cc1N1CCC(N2CCN(C)CC2)CC1 [Compound I-29]	0.05 to 0.5 µM
CCc1cc(Nc2ncc(Br)c(Nc3ccc4nccnc4c3N(C)S(=O)(=O)C(F)(F)F)n2)c(OC)cc1N1CCC(N2CCN(C)CC2)CC1 [Compound I-125]	0.05 to 0.5 µM
COc1cc(N2CCC(N3CCN(C)CC3)CC2)c(C2CC2)cc1Nc1ncc(Br)c(Nc2ccc3nccnc3c2N(C)S(C)(=O)=O)n1 [Compound I-285]	≤ 0.05 µM
COc1cc(N2CCN(C)CC2)c(C)cc1Nc1ncc(C(F)(F)F)c(Nc2ccc3nccnc3c2N(C)S(C)(=O)=O)n1 [Compound I-207]	≤ 0.05 µM
CCc1cc(Nc2ncc(Cl)c(Nc3ccc4nccnc4c3N(C)S(=O)(=O)CC)n2)c(OC)cc1N1CCC(N(C)C)C1 (stereo not shown) [Compound I-118]	≤ 0.05 µM
CCc1cc(Nc2ncc(Br)c(Nc3ccc4nccnc4c3N(CC)S(C)(=O)=O)n2)c(OC)nc1N1CCC(N2CCN(C)CC2)CC1 [Compound I-212]	≤ 0.05 µM
CN(c1c(Nc2nc(Nc3ccn(C)n3)ncc2Br)ccc2nccnc12)S(C)(=O)=O [Compound I-66]	≤ 0.05 µM
CCc1cc(Nc2ncc(Br)c(Nc3ccc4nccnc4c3N(CC)S(C)(=O)=O)n2)c(OC)cc1N1CCC(N(C)C)C1 (stereo not shown) [Compound I-98]	≤ 0.05 µM
CCN(c1c(Nc2nc(Nc3cc(CC4CC4)c(N4CCC(N5CCN(C)CC5)CC4)cc3OC)ncc2Br)ccc2nccnc12)S(C)(=O)=O [Compound I-213]	≤ 0.05 µM
CCc1cc(Nc2ncc(Br)c(Nc3ccc4nccnc4c3N(C)S(=O)(=O)CC)n2)c(OC)cc1N1CCC(N(C)C)CC1 [Compound I-102]	≤ 0.05 µM
COc1cc(N2CCC(N3CCN(C)CC3)CC2)c(C)cc1Nc1ncc(Cl)c(Nc2ccc3nccnc3c2N(C)S(C)(=O)=O)n1 [Compound I-19]	≤ 0.05 µM
CN1CCN(C2CCN(c3ccc(Nc4ncc(C(F)(F)F)c(Nc5ccc6nccnc6c5N(C)S(C)(=O)=O)n4)c(OC(F)(F)F)c3)CC2)CC1 [Compound I-200]	0.05 to 0.5 µM
CCc1cc(Nc2ncc(Cl)c(Nc3ccc4nccnc4c3N(C)S(=O)(=O)CC)n2)c(OC(F)(F)F)cc1N1CCC(N2CCN(C)CC2)CC1 [Compound I-116]	0.05 to 0.5 µM
CCc1cc(Nc2ncc(Cl)c(Nc3ccc4nccnc4c3N(C)S(=O)(=O)C(C)C)n2)c(OC)cc1N1CCN(C)CC1 [Compound I-255]	0.05 to 0.5 µM
CN1CCN(S(=O)(=O)c2ccc(Nc3ncc(Br)c(Nc4ccc5nccnc5c4N(C)S(C)(=O)=O)n3)cc2)CC1 [Compound I-49]	0.05 to 0.5 µM
CCc1cc(Nc2ncc(C3CC3)c(Nc3ccc4nccnc4c3N(C)S(C)(=O)=O)n2)c(OC)cc1N1CCC(N(C)C)CC1 [Compound I-273]	≤ 0.05 µM
CCc1cc(Nc2ncc(F)c(Nc3ccc4nccnc4c3N(C)S(C)(=O)=O)n2)c(OC)cc1N1CCC(N2CCN(C)CC2)CC1 [Compound I-26]	≤ 0.05 µM
CCN(c1c(Nc2nc(Nc3cc(C)c(N4CCC(N(C)C)C4)cc3OC)ncc2Br)ccc2nccnc12)S(C)(=O)=O (stereo not shown) [Compound I-302]	≤ 0.05 µM
C=Cc1cc(Nc2ncc(Cl)c(Nc3ccc4nccnc4c3N(C)S(C)(=O)=O)n2)c(OC(F)(F)F)cc1N1CCC(N2CCN(C)CC2)CC1 [Compound I-23]	≤ 0.05 µM
COc1cc(N2CCC(N(C)C)C2)c(C)cc1Nc1ncc(Br)c(Nc2ccc3nccnc3c2N(C)S(=O)(=O)C2CC2)n1 (stereo not shown) [Compound I-222]	≤ 0.05 µM
COc1cc(N2CCC(N3CCN(C)CC3)CC2)c(CC2CC2)cc1Nc1ncc(Cl)c(Nc2ccc3nccnc3c2N(C2CC2)S(C)(=O)=O)n1 [Compound I-242]	0.05 to 0.5 µM

---

The entries below are paired with their reported IC50.
Target: various mutants of kinase EGFR (BaF3 cell lines stably transfected with kinase) (Homo sapiens, UniProt P00533, C797S/L858R/T790M)
Construct: expressed in transfected cells; host or cells: BaF3
Sequence (P00533 25-1210 T790M/C797S/L858R): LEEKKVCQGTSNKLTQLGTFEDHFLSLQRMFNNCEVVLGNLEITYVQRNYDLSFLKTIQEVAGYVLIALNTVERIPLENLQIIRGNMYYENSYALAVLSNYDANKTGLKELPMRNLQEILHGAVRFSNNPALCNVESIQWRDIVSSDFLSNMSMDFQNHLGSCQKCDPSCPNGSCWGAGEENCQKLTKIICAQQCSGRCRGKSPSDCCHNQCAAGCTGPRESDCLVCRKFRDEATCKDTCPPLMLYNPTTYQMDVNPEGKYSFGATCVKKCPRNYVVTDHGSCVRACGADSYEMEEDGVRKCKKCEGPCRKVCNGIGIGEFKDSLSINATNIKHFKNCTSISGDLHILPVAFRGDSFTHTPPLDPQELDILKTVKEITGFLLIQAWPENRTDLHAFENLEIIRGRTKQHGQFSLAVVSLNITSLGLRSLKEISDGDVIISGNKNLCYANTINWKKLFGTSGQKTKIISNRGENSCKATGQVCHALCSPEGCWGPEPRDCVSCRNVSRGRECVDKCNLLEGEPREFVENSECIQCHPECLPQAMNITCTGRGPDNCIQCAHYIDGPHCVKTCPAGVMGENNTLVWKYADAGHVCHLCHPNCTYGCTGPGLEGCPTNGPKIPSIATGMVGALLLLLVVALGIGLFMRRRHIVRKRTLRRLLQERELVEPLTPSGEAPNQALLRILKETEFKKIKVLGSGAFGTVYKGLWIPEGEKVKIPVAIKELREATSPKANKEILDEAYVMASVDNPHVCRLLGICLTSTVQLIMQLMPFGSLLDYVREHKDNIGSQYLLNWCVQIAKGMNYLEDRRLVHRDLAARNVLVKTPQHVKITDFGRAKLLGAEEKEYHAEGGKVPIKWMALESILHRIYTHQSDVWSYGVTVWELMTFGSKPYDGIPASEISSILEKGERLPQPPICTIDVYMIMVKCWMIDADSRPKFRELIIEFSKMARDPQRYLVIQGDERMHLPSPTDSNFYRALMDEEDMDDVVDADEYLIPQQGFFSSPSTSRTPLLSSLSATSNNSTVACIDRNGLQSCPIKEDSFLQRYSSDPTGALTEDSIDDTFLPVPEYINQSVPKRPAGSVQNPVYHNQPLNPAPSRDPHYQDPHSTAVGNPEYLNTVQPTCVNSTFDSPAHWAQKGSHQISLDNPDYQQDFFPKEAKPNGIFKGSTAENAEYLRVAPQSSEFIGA
Experiment: Growth inhibitory activity of compounds on BaF3 cell lines stably transfected with kinase (MTS, 48 h)
Type: cell-based
Conditions: BaF3 cells stably transfected with EGFR L858R/T790M/C797S, read-out: IC50, growth inhibition, L858R/T790M/C797S

molecule	IC50
COc1cc(N2CCC(N3CCN(C)CC3)CC2)ccc1Nc1ncc([N+](=O)[O-])c(Nc2ccc3nccnc3c2N(C)S(C)(=O)=O)n1 [Compound I-30]	500 to 2500 nM
CCc1cc(Nc2ncc(Cl)c(Nc3ccc4nccnc4c3N(C)S(C)(=O)=O)n2)ccc1N1CCC(N2CCN(C)CC2)CC1 [Compound I-289]	≤ 50 nM
CN1CCN(C(=O)c2cccc(Nc3ncc(Br)c(Nc4ccc5nccnc5c4N(C)S(C)(=O)=O)n3)c2)CC1 [Compound I-80]	50 to 500 nM
COc1cc(N2CCC(O)CC2)ccc1Nc1ncc(Br)c(Nc2ccc3nccnc3c2N(C)S(C)(=O)=O)n1 [Compound I-44]	≤ 50 nM
COc1cc(N2CCC(N3CCN(C)CC3)CC2)c(C)cc1Nc1ncc(Br)c(Nc2ccc3nccnc3c2N(C2CC2)S(C)(=O)=O)n1 [Compound I-154]	≤ 50 nM
CN1CCN(c2ccc(Nc3ncc(Br)c(Nc4ccc5nccnc5c4N(C)S(C)(=O)=O)n3)cc2)CC1 [Compound I-40]	≤ 50 nM
COc1nc(N2CCC(N3CCN(C)CC3)CC2)ccc1Nc1ncc(C(F)(F)F)c(Nc2ccc3nccnc3c2N(C)S(C)(=O)=O)n1 [Compound I-197]	50 to 500 nM
CCc1cc(Nc2ncc(Br)c(Nc3ccc4nccnc4c3N(CC)S(C)(=O)=O)n2)c(OC)cc1N1CCC(N(C)C)C1 (stereo not shown) [Compound I-98]	≤ 50 nM
COc1cc(N2CCC(N3CCN(C)CC3)CC2)c(CC2CC2)cc1Nc1ncc(Br)c(Nc2ccc3nccnc3c2N(C)S(=O)(=O)C2CC2)n1 [Compound I-220]	≤ 50 nM
COc1cc(N2CCC(N3CCN(C)CC3)CC2)c(C)cc1Nc1ncc(Cl)c(Nc2ccc3nccnc3c2N(C2CC2)S(C)(=O)=O)n1 [Compound I-159]	≤ 50 nM
CCc1cc(Nc2ncc(Cl)c(Nc3ccc4nccnc4c3N(C)S(=O)(=O)C(C)C)n2)c(OC)cc1N1CCN(C)CC1 [Compound I-255]	50 to 500 nM
CN1CCN(C2CCN(c3ccc(Nc4ncc(Br)c(Nc5ccc6nccnc6c5N(C)S(C)(=O)=O)n4)c(OC(F)(F)F)c3)CC2)CC1 [Compound I-7]	50 to 500 nM
COc1cc(N2CCN(C)CC2)c(C)cc1Nc1ncc(Br)c(Nc2ccc3nccnc3c2N(C)S(C)(=O)=O)n1 [Compound I-12]	≤ 50 nM

---

Molecular target: various mutants of kinase EGFR (BaF3 cell lines stably transfected with kinase) (Homo sapiens, UniProt P00533, L858R)
Construct: expressed in transfected cells; host or cells: BaF3
Sequence (P00533 25-1210 L858R): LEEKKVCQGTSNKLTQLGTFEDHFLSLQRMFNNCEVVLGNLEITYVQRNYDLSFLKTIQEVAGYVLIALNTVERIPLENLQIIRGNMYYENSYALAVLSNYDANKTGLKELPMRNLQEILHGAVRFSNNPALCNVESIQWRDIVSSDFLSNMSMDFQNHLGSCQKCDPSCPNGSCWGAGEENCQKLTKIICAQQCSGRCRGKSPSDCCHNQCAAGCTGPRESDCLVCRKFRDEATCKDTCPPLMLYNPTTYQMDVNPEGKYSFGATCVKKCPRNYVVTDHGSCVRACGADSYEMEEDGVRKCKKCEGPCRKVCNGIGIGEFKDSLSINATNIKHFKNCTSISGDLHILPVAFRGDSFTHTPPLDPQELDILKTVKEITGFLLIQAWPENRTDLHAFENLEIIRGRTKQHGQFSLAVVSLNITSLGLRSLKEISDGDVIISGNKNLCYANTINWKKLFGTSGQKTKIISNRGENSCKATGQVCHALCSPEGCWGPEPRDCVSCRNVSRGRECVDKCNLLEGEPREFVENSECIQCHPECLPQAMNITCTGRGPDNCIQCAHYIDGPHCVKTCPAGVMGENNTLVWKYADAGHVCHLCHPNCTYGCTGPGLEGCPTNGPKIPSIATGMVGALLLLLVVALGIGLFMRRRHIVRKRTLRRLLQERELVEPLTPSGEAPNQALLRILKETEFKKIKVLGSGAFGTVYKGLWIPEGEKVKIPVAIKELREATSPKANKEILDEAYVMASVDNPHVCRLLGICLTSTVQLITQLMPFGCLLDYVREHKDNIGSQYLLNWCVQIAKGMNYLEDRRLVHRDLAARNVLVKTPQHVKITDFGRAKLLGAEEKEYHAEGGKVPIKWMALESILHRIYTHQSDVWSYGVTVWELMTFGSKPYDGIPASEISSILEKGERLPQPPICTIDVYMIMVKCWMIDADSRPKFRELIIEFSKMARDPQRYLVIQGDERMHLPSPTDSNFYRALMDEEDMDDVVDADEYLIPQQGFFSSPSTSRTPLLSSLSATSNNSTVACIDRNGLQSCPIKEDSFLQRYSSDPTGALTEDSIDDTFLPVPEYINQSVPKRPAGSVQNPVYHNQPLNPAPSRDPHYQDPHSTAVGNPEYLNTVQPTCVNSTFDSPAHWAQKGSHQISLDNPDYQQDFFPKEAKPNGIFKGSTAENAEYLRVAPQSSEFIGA
Assay: Growth inhibitory activity of compounds on BaF3 cell lines stably transfected with kinase (MTS, 48 h)
Format: cell-based
Conditions: BaF3 cells stably transfected with EGFR L858R, read-out: IC50, growth inhibition, L858R
pIC50: −log10 of the molar value.

compound	pIC50
COc1cc(N2CCC(N3CCN(C)CC3)CC2)c(C)cc1Nc1ncc(Br)c(Nc2ccc3nccnc3c2N(C2CC2)S(C)(=O)=O)n1	≥ 7.30
CCc1cc(Nc2ncc(Br)c(Nc3ccc4nccnc4c3N(C)S(C)(=O)=O)n2)ccc1N1CCC(N2CCN(C)CC2)CC1	≥ 7.30
COc1nc(N2CCC(N3CCN(C)CC3)CC2)ccc1Nc1ncc(Br)c(Nc2ccc3nccnc3c2N(C)S(C)(=O)=O)n1	6.30 to 7.30
CN(c1c(Nc2nc(Nc3cnn(C)c3)ncc2Br)ccc2nccnc12)S(C)(=O)=O	6.30 to 7.30
CCc1cc(Nc2ncc(C3CC3)c(Nc3ccc4nccnc4c3N(C)S(C)(=O)=O)n2)c(OC)cc1N1CCC(N(C)C)C1 (stereo not shown)	≥ 7.30
COc1cc(N2CCC(N(C)C)CC2)c(C)cc1Nc1ncc(F)c(Nc2ccc3nccnc3c2N(C)S(C)(=O)=O)n1	≥ 7.30
COc1ccc(CN2CCN(C)CC2)cc1Nc1ncc(Br)c(Nc2ccc3nccnc3c2N(C)S(C)(=O)=O)n1	6.30 to 7.30
COc1cc(N2CCC(N3CCN(C)CC3)CC2)ccc1Nc1ncc(C(F)(F)F)c(Nc2ccc3nccnc3c2N(C)S(C)(=O)=O)n1	≥ 7.30
COc1cc(N2CCC(N(C)C)CC2)c(C)cc1Nc1ncc(Br)c(Nc2ccc3nccnc3c2N(C)S(C)(=O)=O)n1	≥ 7.30
COc1cc(N2CCC(N(C)C)CC2)c(C)cc1Nc1ncc(C2CC2)c(Nc2ccc3nccnc3c2N(C)S(C)(=O)=O)n1	≥ 7.30
CCN(c1c(Nc2nc(Nc3ccc(N4CCC(N5CCN(C)CC5)CC4)cc3OC)ncc2Cl)ccc2nccnc12)S(C)(=O)=O	6.30 to 7.30
COc1cc(N2CCC(N3CCN(C)CC3)CC2)ccc1Nc1ncc([N+](=O)[O-])c(Nc2ccc3nccnc3c2N(C)S(C)(=O)=O)n1	5.60 to 6.30
CCc1cc(Nc2ncc(Br)c(Nc3ccc4nccnc4c3N(C)S(=O)(=O)C3CC3)n2)c(OC)cc1N1CCC(N2CCN(C)CC2)CC1	≥ 7.30
